PROTOCOL_TEXT: growth of efflux-deficient E. coli DRC39 – strain DRC39, OD650, 48 h, E. coli filamentation inducers, primary screen (AID 1179);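 note: screen aims at cell division blockers that make cells filament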
MEASUREMENT_CONDITIONS: E. coli DRC39 delta-acrAB growth, higher = more signal, called active from +8 up or from −8 down
PROPERTY_LABEL: z-score
API note: the answer field is a bare number with no unit suffix.

Examples with their reported z-score follow.
> print(dat)
                                   compound  property.label  number
1  C=CCN1C(=O)[C@@]2(O[C@@H](CCO)[C@H]([Si](C)(C)c3ccc(OC)cc3)[C@H]2C)c2cc(N3C(=O)COc4ccccc43)ccc21         z-score   0.338
2  C=C(CCCC)C(=O)CC[C@@H](OC(=O)c1ccccc1-c1ccccc1C(=O)O)c1ccc(CO)o1         z-score  -0.218

Specify z-score for COC(=O)c1c2oc(c1C(=O)OC)C(=O)N[C@H](Cc1ccccc1)Cn1nncc1C1(CCCCC1)NC(=O)N[C@H](CO)CC2 and stop.
0.402

Specify z-score for COc1ccc(CCNC(=O)[C@@]2(C)c3ccccc3C(=O)N(Cc3ccccc3)[C@H]2c2ccc(CO)cc2)cc1 and stop.
0.535

Specify z-score for O=C(NCc1ccccc1)[C@@H]1c2ccccc2C(=O)N(Cc2cc(F)cc(C(F)(F)F)c2)[C@H]1c1ccc(CO)cc1 and stop.
0.675

Specify z-score for COc1ccc([Si](C)(C)[C@@H]2[C@@H](CCO)O[C@]3(C(=O)N(Cc4cccc(N5CCCCC5=O)c4)c4ccccc43)[C@H]2C)cc1 and stop.
0.244

Specify z-score for CCCCCCCCCCC(O)C1C=CC2C(=O)N(c3ccccc3)C(=O)C2N1Nc1ccc([N+](=O)[O-])cc1 (configuration not stated) and stop.
0.0458
